Source listed as the supplement of paper PMC10724198.

In this section we review reported protein stability index values for a set of sequences.
Tested on: Saccharomyces cerevisiae;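 note: PSI is a weighted mean of each variant's read distribution over the sorted stability bins, computed only for variants having over 10 reads in total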
Assay Notes: protein stability index of tFT-peptide fusion in deletion strain of DAS1 (PSI (0-1 scale)); higher = more stable (slower turnover)
Measured Property: protein stability index

[[record]]
seq_text = "ARWRVGLWRGYS"
target = "Saccharomyces cerevisiae"
measured_property = "protein stability index"
recorded_value = 0.659

[[record]]
seq_text = "FSMRWTFRYWVNS"
target = "Saccharomyces cerevisiae"
measured_property = "protein stability index"
recorded_value = 0.542

[[record]]
seq_text = "PDKRNHLLKLLN"
target = "Saccharomyces cerevisiae"
measured_property = "protein stability index"
recorded_value = 0.6

[[record]]
seq_text = "FSMRWTFRYIVN"
target = "Saccharomyces cerevisiae"
measured_property = "protein stability index"
recorded_value = 0.475

[[record]]
seq_text = "RLIQPLPVQFAN"
target = "Saccharomyces cerevisiae"
measured_property = "protein stability index"
recorded_value = 0.62

[[record]]
seq_text = "ARWSVGLWRGAS"
target = "Saccharomyces cerevisiae"
measured_property = "protein stability index"
recorded_value = 0.692

[[record]]
seq_text = "LNILRQKMNHQN"
target = "Saccharomyces cerevisiae"
measured_property = "protein stability index"
recorded_value = 0.622

[[record]]
seq_text = "LKILRQKMNHQNA"
target = "Saccharomyces cerevisiae"
measured_property = "protein stability index"
recorded_value = 0.681

[[record]]
seq_text = "FSMRWTFRYWVNF"
target = "Saccharomyces cerevisiae"
measured_property = "protein stability index"
recorded_value = 0.523

[[record]]
seq_text = "PSLAASFWRKVG"
target = "Saccharomyces cerevisiae"
measured_property = "protein stability index"
recorded_value = 0.688

[[record]]
seq_text = "KKHLKGQKQKIN"
target = "Saccharomyces cerevisiae"
measured_property = "protein stability index"
recorded_value = 0.608

[[record]]
seq_text = "KKHKWGQKQKIN"
target = "Saccharomyces cerevisiae"
measured_property = "protein stability index"
recorded_value = 0.589

[[record]]
seq_text = "TLIQPLPVQFLN"
target = "Saccharomyces cerevisiae"
measured_property = "protein stability index"
recorded_value = 0.576

[[record]]
seq_text = "VRGAVGGWRLVGL"
target = "Saccharomyces cerevisiae"
measured_property = "protein stability index"
recorded_value = 0.675

[[record]]
seq_text = "KKHKKEQKQKIN"
target = "Saccharomyces cerevisiae"
measured_property = "protein stability index"
recorded_value = 0.678

[[record]]
seq_text = "RLIQPLDVQFLN"
target = "Saccharomyces cerevisiae"
measured_property = "protein stability index"
recorded_value = 0.617

[[record]]
seq_text = "LVVYLSCVALIN"
target = "Saccharomyces cerevisiae"
measured_property = "protein stability index"
recorded_value = 0.0501

[[record]]
seq_text = "LKILRQKMNHQK"
target = "Saccharomyces cerevisiae"
measured_property = "protein stability index"
recorded_value = 0.682

[[record]]
seq_text = "VRGAVGGWRLVI"
target = "Saccharomyces cerevisiae"
measured_property = "protein stability index"
recorded_value = 0.685

[[record]]
seq_text = "VRGAVGGWRLNG"
target = "Saccharomyces cerevisiae"
measured_property = "protein stability index"
recorded_value = 0.679

[[record]]
seq_text = "CVVYLSCVACIN"
target = "Saccharomyces cerevisiae"
measured_property = "protein stability index"
recorded_value = 0.0323

[[record]]
seq_text = "KNHKKGQKQKIN"
target = "Saccharomyces cerevisiae"
measured_property = "protein stability index"
recorded_value = 0.61

[[record]]
seq_text = "LKILRQKMNHQR"
target = "Saccharomyces cerevisiae"
measured_property = "protein stability index"
recorded_value = 0.669

[[record]]
seq_text = "RLIIPLPVQFLN"
target = "Saccharomyces cerevisiae"
measured_property = "protein stability index"
recorded_value = 0.551

[[record]]
seq_text = "VRGAVGGCRLVG"
target = "Saccharomyces cerevisiae"
measured_property = "protein stability index"
recorded_value = 0.692

[[record]]
seq_text = "CTSCGYKFRTNNE"
target = "Saccharomyces cerevisiae"
measured_property = "protein stability index"
recorded_value = 0.711

[[record]]
seq_text = "YSLAASFWRVVG"
target = "Saccharomyces cerevisiae"
measured_property = "protein stability index"
recorded_value = 0.67

[[record]]
seq_text = "FSMRWQFRYWVN"
target = "Saccharomyces cerevisiae"
measured_property = "protein stability index"
recorded_value = 0.53

[[record]]
seq_text = "RLIQPLEVQFLN"
target = "Saccharomyces cerevisiae"
measured_property = "protein stability index"
recorded_value = 0.665

[[record]]
seq_text = "KKHKKGQMQKIN"
target = "Saccharomyces cerevisiae"
measured_property = "protein stability index"
recorded_value = 0.626

[[record]]
seq_text = "FSMRWTFRGWVN"
target = "Saccharomyces cerevisiae"
measured_property = "protein stability index"
recorded_value = 0.605

[[record]]
seq_text = "LKILCQKMNHQN"
target = "Saccharomyces cerevisiae"
measured_property = "protein stability index"
recorded_value = 0.71

[[record]]
seq_text = "LVVYLSCKACIN"
target = "Saccharomyces cerevisiae"
measured_property = "protein stability index"
recorded_value = 0.0225

[[record]]
seq_text = "ARWAVGLWRGAS"
target = "Saccharomyces cerevisiae"
measured_property = "protein stability index"
recorded_value = 0.71

[[record]]
seq_text = "WLIQPLPVQFLN"
target = "Saccharomyces cerevisiae"
measured_property = "protein stability index"
recorded_value = 0.643

[[record]]
seq_text = "PSLAASPWRVVG"
target = "Saccharomyces cerevisiae"
measured_property = "protein stability index"
recorded_value = 0.683

[[record]]
seq_text = "VRGAVGGWRLVY"
target = "Saccharomyces cerevisiae"
measured_property = "protein stability index"
recorded_value = 0.636

[[record]]
seq_text = "CTSCGYKYRTNN"
target = "Saccharomyces cerevisiae"
measured_property = "protein stability index"
recorded_value = 0.674

[[record]]
seq_text = "VRGAVGKWRLVG"
target = "Saccharomyces cerevisiae"
measured_property = "protein stability index"
recorded_value = 0.68

[[record]]
seq_text = "VEGAVGGWRLVG"
target = "Saccharomyces cerevisiae"
measured_property = "protein stability index"
recorded_value = 0.685

[[record]]
seq_text = "LKILRQKMNHQNP"
target = "Saccharomyces cerevisiae"
measured_property = "protein stability index"
recorded_value = 0.688

[[record]]
seq_text = "CTSCGYKFRTNE"
target = "Saccharomyces cerevisiae"
measured_property = "protein stability index"
recorded_value = 0.685

[[record]]
seq_text = "PSLVASFWRVVG"
target = "Saccharomyces cerevisiae"
measured_property = "protein stability index"
recorded_value = 0.686

[[record]]
seq_text = "ATWRVGLWRGAS"
target = "Saccharomyces cerevisiae"
measured_property = "protein stability index"
recorded_value = 0.685

[[record]]
seq_text = "FSMRWTFRYWVNK"
target = "Saccharomyces cerevisiae"
measured_property = "protein stability index"
recorded_value = 0.532

[[record]]
seq_text = "VRKAVGGWRLVG"
target = "Saccharomyces cerevisiae"
measured_property = "protein stability index"
recorded_value = 0.665

[[record]]
seq_text = "PSLAASFWRVVGI"
target = "Saccharomyces cerevisiae"
measured_property = "protein stability index"
recorded_value = 0.696

[[record]]
seq_text = "LAVYLSCVACIN"
target = "Saccharomyces cerevisiae"
measured_property = "protein stability index"
recorded_value = 0.0886

[[record]]
seq_text = "RLIQPLPVQFLNE"
target = "Saccharomyces cerevisiae"
measured_property = "protein stability index"
recorded_value = 0.676

[[record]]
seq_text = "CTSCGYKFRCNN"
target = "Saccharomyces cerevisiae"
measured_property = "protein stability index"
recorded_value = 0.695

[[record]]
seq_text = "PSLHASFWRVVG"
target = "Saccharomyces cerevisiae"
measured_property = "protein stability index"
recorded_value = 0.684

[[record]]
seq_text = "LVVCLSCVACIN"
target = "Saccharomyces cerevisiae"
measured_property = "protein stability index"
recorded_value = 0.034

[[record]]
seq_text = "LVQYLSCVACIN"
target = "Saccharomyces cerevisiae"
measured_property = "protein stability index"
recorded_value = 0.18

[[record]]
seq_text = "ARWRVGLWDGAS"
target = "Saccharomyces cerevisiae"
measured_property = "protein stability index"
recorded_value = 0.688

[[record]]
seq_text = "VRGAVQGWRLVG"
target = "Saccharomyces cerevisiae"
measured_property = "protein stability index"
recorded_value = 0.682

[[record]]
seq_text = "CISCGYKFRTNN"
target = "Saccharomyces cerevisiae"
measured_property = "protein stability index"
recorded_value = 0.725

[[record]]
seq_text = "RLIQPLPSQFLN"
target = "Saccharomyces cerevisiae"
measured_property = "protein stability index"
recorded_value = 0.613

[[record]]
seq_text = "PDKRNHLIKVLN"
target = "Saccharomyces cerevisiae"
measured_property = "protein stability index"
recorded_value = 0.577

[[record]]
seq_text = "RLIQPLPVQFLW"
target = "Saccharomyces cerevisiae"
measured_property = "protein stability index"
recorded_value = 0.565

[[record]]
seq_text = "CTSCGYKFRTNM"
target = "Saccharomyces cerevisiae"
measured_property = "protein stability index"
recorded_value = 0.731

[[record]]
seq_text = "LCVYLSCVACIN"
target = "Saccharomyces cerevisiae"
measured_property = "protein stability index"
recorded_value = 0.0253

[[record]]
seq_text = "VRGAVGGWRLVP"
target = "Saccharomyces cerevisiae"
measured_property = "protein stability index"
recorded_value = 0.686

[[record]]
seq_text = "VRGADGGWRLVG"
target = "Saccharomyces cerevisiae"
measured_property = "protein stability index"
recorded_value = 0.685

[[record]]
seq_text = "LVVYNSCVACIN"
target = "Saccharomyces cerevisiae"
measured_property = "protein stability index"
recorded_value = 0.406

[[record]]
seq_text = "SVVYLSCVACIN"
target = "Saccharomyces cerevisiae"
measured_property = "protein stability index"
recorded_value = 0.0314

[[record]]
seq_text = "LVVYLLCVACIN"
target = "Saccharomyces cerevisiae"
measured_property = "protein stability index"
recorded_value = 0.0739

[[record]]
seq_text = "ARWRVGNWRGAS"
target = "Saccharomyces cerevisiae"
measured_property = "protein stability index"
recorded_value = 0.678

[[record]]
seq_text = "LKVLRQKMNHQN"
target = "Saccharomyces cerevisiae"
measured_property = "protein stability index"
recorded_value = 0.675

[[record]]
seq_text = "PDTRNHLIKLLN"
target = "Saccharomyces cerevisiae"
measured_property = "protein stability index"
recorded_value = 0.59

[[record]]
seq_text = "LKIMRQKMNHQN"
target = "Saccharomyces cerevisiae"
measured_property = "protein stability index"
recorded_value = 0.664

[[record]]
seq_text = "CTSCHYKFRTNN"
target = "Saccharomyces cerevisiae"
measured_property = "protein stability index"
recorded_value = 0.64

[[record]]
seq_text = "FSVRWTFRYWVN"
target = "Saccharomyces cerevisiae"
measured_property = "protein stability index"
recorded_value = 0.419

[[record]]
seq_text = "RLIQPLPVQFLNQ"
target = "Saccharomyces cerevisiae"
measured_property = "protein stability index"
recorded_value = 0.673

[[record]]
seq_text = "FSMRWTFEYWVN"
target = "Saccharomyces cerevisiae"
measured_property = "protein stability index"
recorded_value = 0.448

[[record]]
seq_text = "ARWRVGLWRGAE"
target = "Saccharomyces cerevisiae"
measured_property = "protein stability index"
recorded_value = 0.685

[[record]]
seq_text = "PDKRNHLIKLLNP"
target = "Saccharomyces cerevisiae"
measured_property = "protein stability index"
recorded_value = 0.672

[[record]]
seq_text = "LVLYLSCVACIN"
target = "Saccharomyces cerevisiae"
measured_property = "protein stability index"
recorded_value = 0.0273

[[record]]
seq_text = "VRGLVGGWRLVG"
target = "Saccharomyces cerevisiae"
measured_property = "protein stability index"
recorded_value = 0.678

[[record]]
seq_text = "QSMRWTFRYWVN"
target = "Saccharomyces cerevisiae"
measured_property = "protein stability index"
recorded_value = 0.691

[[record]]
seq_text = "LVVYQSCVACIN"
target = "Saccharomyces cerevisiae"
measured_property = "protein stability index"
recorded_value = 0.339

[[record]]
seq_text = "LVVYLSCVACINK"
target = "Saccharomyces cerevisiae"
measured_property = "protein stability index"
recorded_value = 0.0356

